# reported MIC; entries follow
Tested on: Aspergillus terreus AT49
Test: Measurement of Minimum Inhibitory Concentrations (MICs), A. terreus 49
Format: cell-based
Conditions: RPMI medium containing 2% glucose, 0.135M MOPS buffer, banded into grades

Worked examples follow.
>>> observed_result("O=C(NC1CCN(c2ccccc2)CC1)C(=O)c1c(-c2ccccc2)cc2n1CCCC2")
"1 to 10 µg/mL"
>>> observed_result("Cc1cc(C)nc(N2CCN(c3ccc(NC(=O)C(=O)c4c(-c5ccccc5)cc5n4CCCC5)c(Cl)c3)CC2)c1")
"< 1 µg/mL"
>>> observed_result("Cc1cc(C)nc(N2CCCN(c3ccc(NC(=O)C(=O)c4c(-c5ccccc5)cc5n4CCCC5)cc3)CC2)c1")
"< 1 µg/mL"
>>> observed_result("COc1cc(C)cc(N2CCN(c3ccc(NC(=O)C(=O)c4c(-c5ccccc5)cc5n4CCCC5)cc3)CC2)n1")
"< 1 µg/mL"
>>> observed_result("COCc1cc(NC(=O)C(=O)c2c(-c3ccccc3)cc3n2CCCC3)ccc1N1CCN(c2cc(C)cc(C)n2)CC1")
"< 1 µg/mL"
>>> observed_result("Cc1cc(C)nc(N2CCN(c3ccc(NC(=O)C(=O)c4c(-c5ccccc5)cc5n4CCCC5)cc3O)CC2)c1")
"< 1 µg/mL"

Next up:
Q: Which MIC value belongs to Cc1cc(C)nc(N2CCN(c3ccc(NC(=O)C(=O)c4c(-c5ccccc5)cc5n4CCCC5)cc3COCCCN3CCOCC3)CC2)c1 ?
Ans: > 10 µg/mL

---

Item-by-item account of MIC
Tested on: Aspergillus niger
Experiment: Measurement of Minimum Inhibitory Concentrations (MICs), A. niger
Format: cell-based
Settings: YAG medium, 24 hrs at 35° C., >70% growth inhibition, banded into grades

Recorded results for 2 compounds are shown here.
>>> observed_result("Cc1cc(C)nc(N2CCN(c3ccc(NC(=O)C(=O)c4c(C5CCCC5)cc5n4CCCC5)cc3)CC2)c1 [Example 4]")
"< 1 µg/mL"
>>> observed_result("Cc1ccc(N2CCN(c3ccc(NC(=O)C(=O)c4c(-c5ccccc5)cc5n4CCCC5)cc3)CC2)nc1 [Example 16]")
"< 1 µg/mL"

Q: Which measured MIC value corresponds to COc1cc(C)nc(N2CCN(c3ccc(NC(=O)C(=O)c4c(-c5ccccc5)cc5n4CCCC5)cc3)CC2)c1 [Example 8] ?
Ans: 1 to 10 µg/mL

---

Tested on: Aspergillus niger
Assay: Measurement of Minimum Inhibitory Concentrations (MICs), A. niger
Format: cell-based
Conditions: RPMI medium containing 2% glucose, 0.135M MOPS buffer, banded into grades
PROPERTY_MEASURED: MIC

>>> observed_result("O=C(Nc1ccc2c(c1)OCC2)C(=O)c1c(-c2ccccc2)cc2n1CCCC2")
"< 1 µg/mL"
>>> observed_result("Cc1cc(C)nc(N2CCN(c3ccc(NC(=O)C(=O)c4c(C5CCCC5)cc5n4CCCC5)cc3)CC2)c1")
"< 1 µg/mL"

Q: Give its MIC value. Item: COc1cc(C)nc(N2CCN(c3ccc(NC(=O)C(=O)c4c(-c5ccccc5)cc5n4CCCC5)cc3)CC2)c1
Ans: 1 to 10 µg/mL

Q: Can you share its MIC? I mean this molecule: Cc1cc(OCCOc2ccc(NC(=O)C(=O)c3c(-c4ccccc4)cc4n3CCCC4)cc2)cc(C)n1
Ans: 1 to 10 µg/mL

Q: Request the reported MIC associated with Cc1cc(C)nc(N2CCN(c3ccc(NC(=O)C(=O)c4c(-c5ccccc5)cc5n4CCCC5)cc3O)CC2)c1
Ans: < 1 µg/mL

Q: Entry Cc1cc(C)nc(N(C)CCN(C)c2ccc(NC(=O)C(=O)c3c(-c4ccccc4)cc4n3CCCC4)cc2)c1 has what MIC?
Ans: < 1 µg/mL

---

Tested on: Aspergillus terreus AT49
Assay: Measurement of Minimum Inhibitory Concentrations (MICs), A. terreus 49
Assay type: cell-based
Settings: RPMI medium containing 2% glucose, 0.135M MOPS buffer, banded into grades
PROPERTY_MEASURED: MIC

>>> observed_result("Cc1cc(C)nc(N2CCN(c3ccc(N(C)C(=O)C(=O)c4c(-c5ccccc5)cc5n4CCCC5)cc3)CC2)c1 [Example 6]")
"> 10 µg/mL"
>>> observed_result("COc1cc(C)nc(N2CCN(c3ccc(NC(=O)C(=O)c4c(-c5ccccc5)cc5n4CCCC5)cc3)CC2)c1 [Example 8]")
"< 1 µg/mL"
>>> observed_result("O=C(Nc1cccc2ccccc12)C(=O)c1c(-c2ccccc2)cc2n1CCCC2 [Example 28]")
"< 1 µg/mL"

--- query ---
Q: What measured MIC goes with COCc1cc(N2CCN(c3cc(C)cc(C)n3)CC2)ccc1NC(=O)C(=O)c1c(-c2ccccc2)cc2n1CCCC2 [Example 24] ?
Ans: < 1 µg/mL

---

Property: MIC; scope: individual compounds
Test system: Aspergillus terreus AT49
Experiment: Measurement of Minimum Inhibitory Concentrations (MICs), A. terreus 49
Format: cell-based
Details: RPMI medium containing 2% glucose, 0.135M MOPS buffer, banded into grades

Would you please look over these solved cases?
>>> observed_result("Cc1ccc(N2CCN(c3ccc(NC(=O)C(=O)c4c(-c5ccccc5)cc5n4CCCC5)cc3)CC2)nc1")
"< 1 µg/mL"
>>> observed_result("Cc1cc(C)nc(N2CCN(c3ccc(NC(=O)C(=O)c4c(C5CCCC5)cc5n4CCCC5)cc3)CC2)c1")
"< 1 µg/mL"
>>> observed_result("Cc1cc(C)nc(N2CCN(c3ccc(NC(=O)C(=O)c4c(-c5ccccc5)cc5n4CCCC5)cc3COCCCN3CCN(C)CC3)CC2)c1")
"> 10 µg/mL"

Shifting focus to the compound that follows.
Q: Need MIC, item C=C(C)CN1CCN(c2ccc(NC(=O)C(=O)c3c(-c4ccccc4)cc4n3CCCC4)cc2)CC1
Ans: < 1 µg/mL

---

Each entry below carries its recorded MIC.
Tested on: Aspergillus niger
Experiment: Measurement of Minimum Inhibitory Concentrations (MICs), A. niger
Type: cell-based
Conditions: RPMI medium containing 2% glucose, 0.135M MOPS buffer, banded into grades

As a guide, the following entries are already answered.
>>> observed_result("Cc1ccc(N2CCN(c3ccc(NC(=O)C(=O)c4c(-c5ccccc5)cc5n4CCCC5)cc3)CC2)nc1")
"< 1 µg/mL"
>>> observed_result("Cc1cc(C)nc(N2CCN(c3ccc(NC(=O)C(=O)c4c(-c5ccccc5)cc5n4CCCC5)cc3COCCN(C)C)CC2)c1")
"1 to 10 µg/mL"
>>> observed_result("COc1cc(C)cc(N2CCN(c3ccc(NC(=O)C(=O)c4c(-c5ccccc5)cc5n4CCCC5)cc3)CC2)n1")
"< 1 µg/mL"
>>> observed_result("Cc1cc(C)nc(N2CCN(c3ccc(NC(=O)C(=O)c4c(-c5ccccc5)cc5n4CCCC5)cc3Cl)CC2)c1")
"< 1 µg/mL"

Q: What value of MIC has been recorded for this entry: COCc1cc(NC(=O)C(=O)c2c(-c3ccccc3)cc3n2CCCC3)ccc1N1CCN(c2cc(C)cc(C)n2)CC1
Ans: < 1 µg/mL

Q: For O=C(Nc1ccc(N2CCN(c3ccc(CN4CCOCC4)cn3)CC2)cc1)C(=O)c1c(-c2ccccc2)cc2n1CCCC2 , what is its reported MIC?
Ans: < 1 µg/mL

Q: What value of MIC has been reported for the following compound? Cc1cc(C)nc(N2CCN(c3ccc(NC(=O)C(=O)c4c(-c5ccccc5)cc5n4CCCC5)cc3COCCCN3CCN(C)CC3)CC2)c1
Ans: > 10 µg/mL

Q: Item Cc1cc(C)nc(N(C)CCCN(C)c2ccc(NC(=O)C(=O)c3c(-c4ccccc4)cc4n3CCCC4)cc2)c1 has what recorded MIC?
Ans: < 1 µg/mL

Q: Can you look up the measured MIC of COCc1cc(N2CCN(c3cc(C)cc(C)n3)CC2)ccc1NC(=O)C(=O)c1c(-c2ccccc2)cc2n1CCCC2 for me?
Ans: 1 to 10 µg/mL

Q: # input compound: Cc1cc(C)nc(N2CCC(O)(c3ccc(NC(=O)C(=O)c4c(-c5ccccc5)cc5n4CCCC5)cc3)CC2)c1 ; wanted: its MIC
Ans: < 1 µg/mL

Q: Can you share its MIC? I mean this compound: O=C(Nc1cccc2ccccc12)C(=O)c1c(-c2ccccc2)cc2n1CCCC2
Ans: < 1 µg/mL

Q: Quick check: MIC of Cc1cc(C)nc(OCCOc2ccc(NC(=O)C(=O)c3c(-c4ccccc4)cc4n3CCCC4)cc2)c1 ?
Ans: < 1 µg/mL

Q: // query MIC value for entry Cc1cc(C)nc(N2CCN(c3ccc(NC(=O)C(=O)c4c(-c5ccccc5)cc5n4CCCC5)c(Cl)c3)CC2)c1
Ans: < 1 µg/mL

Q: Find the recorded MIC belonging to O=C(NC1CCN(c2ccccc2)CC1)C(=O)c1c(-c2ccccc2)cc2n1CCCC2 and report it.
Ans: 1 to 10 µg/mL

Q: Value lookup for MIC; key = Cc1cc(C)nc(N2CCCN(c3ccc(NC(=O)C(=O)c4c(-c5ccccc5)cc5n4CCCC5)cc3)CC2)c1
Ans: < 1 µg/mL

Q: I would be grateful if you could share the reported MIC for Cc1cc(C)nc(N2CCN(c3ccc(NC(=O)C(=O)c4c(-c5ccccc5)cc5n4CCCC5)cc3)CC2)c1 .
Ans: < 1 µg/mL

Q: Query (compound): CC(C)(C)CN1CCN(c2ccc(NC(=O)C(=O)c3c(-c4ccccc4)cc4n3CCCC4)cc2)CC1 ; field requested: MIC
Ans: < 1 µg/mL
